system: MDA-MB-231; test: NCI tumour cell line growth inhibition, 48 h
Calls of active or inactive are those of the source. Cut-off read from the data, not from the text of the source: active = GI50 up to about 1.1 µM and inactive = higher.
Measured GI50 values are reported for all entries that follow.

compound | observed-property | value-measured
CC1=C(C)C2(C#N)C(=O)N3C(=NC(c4ccccc4)NC3c3ccccc3)C2(C#N)C(c2ccccc2)N1 (centres undefined) | GI50 | > 100 µM (inactive)
O=C1/C(=N\NC(=S)NC2CCCCC2)c2cc([N+](=O)[O-])ccc2N1CN1CCOCC1 | GI50 | 15.8 µM (inactive)
[N-]=[N+]=NC1=CC(=O)c2cccc3cccc1c23 | GI50 | 73.8 µM (inactive)

Item: N=C(N)N/N=C/c1c(-c2ccccc2)nc2ccn3c(/C=N/N=C(N)N)c(-c4ccccc4)nc3n12 | GI50: > 100 µM (inactive)

----------
test system: NCI-H460; assay: NCI tumour cell line growth inhibition, 48 h
The source made the active and inactive calls. No stated cut-off is given here; in the data, active = GI50 up to about 1.1 µM and inactive = higher.
Measured GI50 values are reported for all entries that follow.

The examples below pair each entry with its known result.
compound | GI50
N#CCCN(c1ccc(/C=N/c2ccc(C(=O)O)cc2)cc1)S(=O)(=O)c1ccccc1 | > 100 µM (inactive)
Cc1csc2c(=O)n(C3OC(CO)C(O)C3O)c(=O)[nH]c12 (stereo unspecified) | > 100 µM (inactive)
Cc1ccc(C(CCO)CCO)nc1 | > 100 µM (inactive)
CC12CCC(/C(=N/c3ccc([N+](=O)[O-])cc3)C1=O)C2(C)C (stereo unspecified) | 25.6 µM (inactive)

Item: Cc1ccc(C(N)=O)cc1/N=N/N(C)C | GI50: > 100 µM (inactive)

Item: [N-]=[N+]=C(C(=O)C(=[N+]=[N-])C(=O)c1ccccc1)C(=O)c1ccccc1 | GI50: > 100 µM (inactive)

Item: CCCn1c(CN(Cc2nc3ccccc3n2CCC)Cc2nc3ccccc3n2CCC)nc2ccccc21 | GI50: 3.27 µM (inactive)

Item: COc1ccc(N2C(=O)CC(=O)N(NC(=O)C(C)Oc3ccccc3C)C2=S)cc1 (stereo unspecified) | GI50: > 100 µM (inactive)

Item: COC(=O)CC(NC(=O)OCc1ccccc1)C(C(=O)OCc1ccccc1)C(C)(OC)OC (stereo unspecified) | GI50: 31.7 µM (inactive)

Item: CC1(C)C2CC(O)C1CCC2=O (stereo unspecified) | GI50: > 100 µM (inactive)

Item: CCCCCCCCCCCC(=O)OCCOCCOCCOCCOCCOCc1ccccc1 | GI50: > 100 µM (inactive)

----------
test system: RXF 631; experiment: NCI tumour cell line growth inhibition, 48 h
The source made the active and inactive calls. Cut-off read from the data, not from the text of the source: active = GI50 up to about 1.1 µM and inactive = higher.
Measured GI50 values are reported for all entries that follow.

The examples below pair each entry with its known result.
compound | GI50
CC/C(CC(=O)CCC(=O)Nc1ccccc1[N+](=O)[O-])=N/NC(=O)C[n+]1ccccc1 | > 100 µM (inactive)
N#CNc1nc(C(=O)Nc2ccc(Cl)cc2)cc(-c2ccccc2)n1 | > 100 µM (inactive)

Item: CC(C)C1=CC(=O)C(C)(C2=NC(C)(C)CO2)c2ccccc21 (stereo not drawn) | GI50: 95.7 µM (inactive)

----------
tested on: MOLT-4; assay: NCI tumour cell line growth inhibition, 48 h
The source made the active and inactive calls. Cut-off read from the data, not from the text of the source: active = GI50 up to about 1.1 µM and inactive = higher.
Outcome (select one): yes for active, no for inactive

Example results:
molecule | class-label
CC(=O)Nc1cc2c(cc1O)CC[C@@H]1[C@@H]2CC[C@]2(C)[C@@H](O)CC[C@@H]12 | no
C[N+]12C=CC=C1C(N1CCCC1)c1scc(-c3ccc(Br)cc3)c12 (stereo unspecified) | no
NC1C=NNC1=O (stereo unspecified) | no

Q: Per the records of this test, what outcome belongs to O=C1/C(=C/c2ccccc2)N=C(c2ccccc2)N1C1Nc2cc3c(cc2S1)NC(N1C(=O)/C(=C/c2ccccc2)N=C1c1ccccc1)S3 (stereo unspecified) ?
A: no

Q: Per the records of this test, what outcome belongs to CC1CC(=O)NC2CC1C2(C)C (stereo unspecified) ?
A: no

Q: Per the records of this test, what outcome belongs to c1ccc([P+](CCCCCC[P+](c2ccccc2)(c2ccccc2)c2ccccc2)(c2ccccc2)c2ccccc2)cc1 ?
A: no

Q: Per the records of this test, what outcome belongs to O=c1[nH]c2ccccc2c2oc(-c3ccccc3)nc12 ?
A: no

Q: Per the records of this test, what outcome belongs to NC1=Nc2ccccc2Sc2nnc(-c3ccc(Cl)cc3)n21 ?
A: no

Data origin: ChEMBL document CHEMBL1201862
